Test system: S. aureus DSM 20231;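 also: OD595 on entry to stationary phase over no-drug wells; at most 1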
Experiment: fitness (endpoint OD595 vs no drug) (fraction); higher = more growth
Settings: first compound 0.25 µg/mL; partner 1 µg/mL; one replicate
Answer each item with its documented fitness.
# respond with the number and nothing more

Request: What does the data say about its fitness? Entry: CCCCCCCCCC(=O)N[C@@H](Cc1c[nH]c2ccccc12)C(=O)N[C@H](CC(N)=O)C(=O)N[C@@H](CC(=O)O)C(=O)N[C@@H]1C(=O)NCC(=O)N[C@@H](CCCN)C(=O)N[C@@H](CC(=O)O)C(=O)N[C@H](C)C(=O)N[C@@H](CC(=O)O)C(=O)NCC(=O)N[C@H](CO)C(=O)N[C@@H]([C@H](C)CC(=O)O)C(=O)N[C@@H](CC(=O)c2ccccc2N)C(=O)O[C@@H]1C [Daptomycin] + CC(=O)NC[C@H]1CN(c2ccc(N3CCOCC3)c(F)c2)C(=O)O1
Response: 0.0221

Request: What does the data say about its fitness? Entry: Cn1nnc(-c2ccc(-c3ccc(N4C[C@H](CO)OC4=O)cc3F)cn2)n1 [Tedizolid] + CC1=C\[C@@H](O)CC(=O)Cc2nc(co2)C(=O)N2CCC=C2C(=O)O[C@H](C(C)C)[C@H](C)/C=C/C(=O)NC\C=C\1
Response: 0.0496

Request: What does the data say about its fitness? Entry: CO/N=C(\C(=O)N[C@@H]1C(=O)N2C(C(=O)[O-])=C(C[N+]3(C)CCCC3)CS[C@H]12)c1csc(N)n1 [Cefepime] + CC(=O)NC[C@H]1CN(c2ccc(N3CCOCC3)c(F)c2)C(=O)O1 [Linezolid]
Response: 0.0593

Request: What does the data say about its fitness? Entry: CO/N=C(\C(=O)N[C@@H]1C(=O)N2C(C(=O)[O-])=C(C[N+]3(C)CCCC3)CS[C@H]12)c1csc(N)n1 [Cefepime] + CC1=C\[C@@H](O)CC(=O)Cc2nc(co2)C(=O)N2CCC=C2C(=O)O[C@H](C(C)C)[C@H](C)/C=C/C(=O)NC\C=C\1 [Virginiamycin M1]
Response: 0.878
